- Test system: primary human T-cells
- assay_comment: Proliferation assay after 5 days (CellTiter-Glo, CD3 stimulation; PBS counter screen)
- Format: cell-based
- condition_set: Homo sapiens, T-cell, 120 h, CD3 stimulation, 5 days; normalized to reference compound A1 as stimulator control = 100%, DMSO neutral control; read-out: Emax proliferation (% activation)
compounds and their reported Emax
measured_parameter: Emax (%)

N[C@H]1CS(=O)(=O)c2cc(F)c(-c3noc(N4CCOCC4)n3)cc2N(Cc2ccc(Cl)cc2)C1=O	81
[2H]C([2H])([2H])C(c1nnc(-c2ccc3c(c2)N(Cc2ccc(Cl)cc2)C(=O)[C@@H](N)CS3(=O)=O)o1)(C([2H])([2H])[2H])C([2H])([2H])[2H]	132
COC(=O)N1CCC(c2nc(-c3cc4c(cc3F)S(=O)(=O)C[C@H](N)C(=O)N4Cc3ccc(OC(C)C)cc3)no2)C1 (stereo partly drawn)	124
CC(C)Oc1ccc(CN2C(=O)[C@@H](N)CS(=O)(=O)c3cc(F)c(-c4nnc(C(C)(C)C)o4)cc32)cn1	161
N[C@H]1CS(=O)(=O)c2cc(F)c(-c3nnc(N4CCC(F)(F)CC4)o3)cc2N(Cc2ccc(Cl)cc2)C1=O	152
N[C@H]1CS(=O)(=O)c2ccc(-c3nnc(N4CCOC(C(F)(F)F)C4)o3)cc2N(Cc2ccc(Cl)cc2)C1=O (stereo partly drawn)	126

Measured values drawn from patent US20240368150A1 for this set.
